experiment: Pharmacokinetic experiment in rat (IV and PO, plasma LC-MS/MS); conditions: SD, rat, plasma, po, 10 mg/kg
RECORDED METRIC: Tmax
Give the number first and the unit second.

Tmax measured on Cc1ccc(C(=O)Nc2ccc(CN3CCN(C)CC3)c(C(F)(F)F)c2)cc1C#Cc1cnc2cccnn12 = 2.33 h

====

molecular target: KDR (Homo sapiens, UniProt P35968); test: Inhibition of receptor tyrosine kinase activity at molecular level (ELISA, Poly(Glu,Tyr)4:1 substrate phosphorylation); format: biochemical; conditions: 10 nM compound; average of two independent experiments
Sequence (P35968 20-1356): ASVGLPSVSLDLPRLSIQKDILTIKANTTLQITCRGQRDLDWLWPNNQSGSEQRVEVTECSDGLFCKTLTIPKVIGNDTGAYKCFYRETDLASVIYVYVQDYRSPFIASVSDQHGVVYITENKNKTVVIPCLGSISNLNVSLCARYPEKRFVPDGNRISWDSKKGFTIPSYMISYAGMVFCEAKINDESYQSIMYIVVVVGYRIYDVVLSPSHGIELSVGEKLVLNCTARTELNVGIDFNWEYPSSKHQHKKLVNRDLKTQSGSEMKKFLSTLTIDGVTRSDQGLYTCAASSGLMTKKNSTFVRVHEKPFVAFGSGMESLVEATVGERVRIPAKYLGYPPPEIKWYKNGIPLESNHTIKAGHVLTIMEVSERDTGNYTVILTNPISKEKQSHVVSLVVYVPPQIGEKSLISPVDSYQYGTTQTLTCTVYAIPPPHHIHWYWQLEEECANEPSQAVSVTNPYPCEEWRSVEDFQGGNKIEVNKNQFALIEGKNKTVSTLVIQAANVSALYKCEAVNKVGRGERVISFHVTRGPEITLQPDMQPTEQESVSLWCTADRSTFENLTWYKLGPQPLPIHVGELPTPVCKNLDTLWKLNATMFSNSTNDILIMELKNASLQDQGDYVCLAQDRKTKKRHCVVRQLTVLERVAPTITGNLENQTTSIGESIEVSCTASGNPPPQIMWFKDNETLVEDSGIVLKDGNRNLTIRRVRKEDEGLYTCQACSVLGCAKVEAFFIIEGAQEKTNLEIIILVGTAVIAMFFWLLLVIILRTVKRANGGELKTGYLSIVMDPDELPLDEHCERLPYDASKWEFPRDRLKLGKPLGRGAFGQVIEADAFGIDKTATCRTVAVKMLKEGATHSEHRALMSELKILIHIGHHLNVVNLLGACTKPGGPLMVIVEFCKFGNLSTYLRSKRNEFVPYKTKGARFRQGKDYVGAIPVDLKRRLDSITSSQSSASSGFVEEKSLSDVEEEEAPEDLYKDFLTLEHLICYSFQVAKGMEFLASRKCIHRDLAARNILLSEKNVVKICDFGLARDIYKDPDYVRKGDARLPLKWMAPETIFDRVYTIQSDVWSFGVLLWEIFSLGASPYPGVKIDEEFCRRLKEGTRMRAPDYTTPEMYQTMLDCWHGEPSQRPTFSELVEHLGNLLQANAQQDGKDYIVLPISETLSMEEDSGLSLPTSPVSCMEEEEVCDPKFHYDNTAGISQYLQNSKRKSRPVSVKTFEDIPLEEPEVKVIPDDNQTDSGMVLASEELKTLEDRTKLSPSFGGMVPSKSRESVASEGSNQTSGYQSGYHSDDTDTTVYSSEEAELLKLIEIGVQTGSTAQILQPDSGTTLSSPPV
RECORDED METRIC: 10 nM inhibition ratio KDR
Output spec: single numeric token, no unit.

KDR (Homo sapiens, UniProt P35968) 10 nM inhibition ratio KDR of CN1CCC(Oc2ccc(NC(=O)c3ccc(Cl)c(C#Cc4cccnc4N)c3)cc2C(F)(F)F)CC1 is 35.4

KDR (Homo sapiens, UniProt P35968) 10 nM inhibition ratio KDR of CN1CCN(Cc2ccc(NC(=O)c3ccc(Cl)c(C#Cc4cc(N(C)C)cnc4N)c3)cc2C(F)(F)F)CC1 is 12.1

KDR (Homo sapiens, UniProt P35968) 10 nM inhibition ratio KDR of CN1CCN(Cc2ccc(NC(=O)c3ccc(Cl)c(C#Cc4c(F)ccnc4N)c3)cc2C(F)(F)F)CC1 is 33.2

KDR (Homo sapiens, UniProt P35968) 10 nM inhibition ratio KDR of Cc1ccc(C#Cc2cccnc2N)cc1C(=O)Nc1ccc(CN2CCN(C)CC2)c(C(F)(F)F)c1 is 20.3

KDR (Homo sapiens, UniProt P35968) 10 nM inhibition ratio KDR of COCc1cnc(N)c(C#Cc2cc(C(=O)Nc3ccc(CN4CCN(C)CC4)c(C(F)(F)F)c3)ccc2Cl)c1 is 35.1

KDR (Homo sapiens, UniProt P35968) 10 nM inhibition ratio KDR of CN1CCN(Cc2ccc(NC(=O)c3cc(Cl)cc(C#Cc4cccnc4N)c3)cc2C(F)(F)F)CC1 is 28.9

KDR (Homo sapiens, UniProt P35968) 10 nM inhibition ratio KDR of Cc1ncccc1C#Cc1cc(C(=O)Nc2ccc(CN3CCN(C)CC3)c(C(F)(F)F)c2)ccc1Cl [HuFGFR143, reference compound] is 26.4

KDR (Homo sapiens, UniProt P35968) 10 nM inhibition ratio KDR of CN(C)Cc1cnc(N)c(C#Cc2cc(C(=O)Nc3ccc(CN4CCN(C)CC4)c(C(F)(F)F)c3)ccc2Cl)c1 is 18.0

KDR (Homo sapiens, UniProt P35968) 10 nM inhibition ratio KDR of CN1CCN(Cc2ccc(NC(=O)c3ccc(Cl)c(C#Cc4cc(Cl)cnc4N)c3)cc2C(F)(F)F)CC1 is 25.0

KDR (Homo sapiens, UniProt P35968) 10 nM inhibition ratio KDR of CC(C)(C)OC(=O)N1CCN(Cc2ccc(NC(=O)c3ccc(Cl)c(C#Cc4cccnc4N)c3)cc2C(F)(F)F)CC1 is 27.8

KDR (Homo sapiens, UniProt P35968) 10 nM inhibition ratio KDR of Cc1ccc(C(=O)Nc2ccc(CN3CCN(C)CC3)c(C(F)(F)F)c2)cc1C#Cc1cnc2cccnn12 is 85.3

KDR (Homo sapiens, UniProt P35968) 10 nM inhibition ratio KDR of CN(C)CCOc1cnc(N)c(C#Cc2cc(C(=O)Nc3ccc(CN4CCN(C)CC4)c(C(F)(F)F)c3)ccc2Cl)c1 is 14.3

KDR (Homo sapiens, UniProt P35968) 10 nM inhibition ratio KDR of CN1CCN(Cc2ccc(NC(=O)c3ccc(Cl)c(C#Cc4cc(C(F)(F)F)cnc4N)c3)cc2C(F)(F)F)CC1 is 23.4

KDR (Homo sapiens, UniProt P35968) 10 nM inhibition ratio KDR of Nc1ncccc1C#Cc1cc(C(=O)Nc2ccc(CN3CCNCC3)c(C(F)(F)F)c2)ccc1Cl is 38.2

KDR (Homo sapiens, UniProt P35968) 10 nM inhibition ratio KDR of CN1CCN(Cc2ccc(NC(=O)c3ccc(Cl)c(C#Cc4cc(CO)cnc4N)c3)cc2C(F)(F)F)CC1 is 5.8
